// provenance: patent US4548926A

# TARGET_OR_TEST_SYSTEM: human renin (Homo sapiens, UniProt P00797)
# Sequence (P00797 67-406): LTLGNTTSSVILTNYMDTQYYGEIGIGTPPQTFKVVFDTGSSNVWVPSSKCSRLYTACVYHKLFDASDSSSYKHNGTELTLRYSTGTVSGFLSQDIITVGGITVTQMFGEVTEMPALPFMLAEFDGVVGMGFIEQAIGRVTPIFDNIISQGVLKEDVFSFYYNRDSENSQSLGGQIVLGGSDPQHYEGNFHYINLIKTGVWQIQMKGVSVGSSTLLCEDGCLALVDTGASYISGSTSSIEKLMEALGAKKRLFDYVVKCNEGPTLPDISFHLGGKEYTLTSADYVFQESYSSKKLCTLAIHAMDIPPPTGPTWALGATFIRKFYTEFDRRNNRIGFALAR
# ASSAY_SUMMARY: Inhibition of renin activity (human renin with sheep angiotensinogen, assay of angiotensin I)
# Assay type: biochemical
# EXPERIMENTAL_CONTEXT: test compound 5 × 10^-5 mole/liter, phosphate buffer pH 7.3, 10 minutes at 37° C., mean of 3 or 4 experiments
Square brackets hold non-standard residues; d marks the D form. Peptide text beside a SMILES is read from it. * marks the point of attachment. 1Nal = N[C@@H](Cc1cccc2ccccc12)C(=O)O; Npys = O=[N+]([O-])c1cccnc1S*; Cbz = O=C(OCc1ccccc1)*; Mpa = O=C(O)CCS
VALUE_TYPE: % Inhibition (%)

| MOLECULE | TARGET_OR_TEST_SYSTEM | VALUE_TYPE | OBSERVED |
| --- | --- | --- | --- |
| CC(C)C[C@@H](C=O)NC(=O)[C@H](Cc1c[nH]cn1)NC(=O)[C@H](Cc1cccc2ccccc12)NC(=O)OCc1ccccc1 [Compound 3] (Cbz-[1Nal]-His-Leu-aldehyde) | human renin (Homo sapiens, UniProt P00797) | % Inhibition | 54 |
| CC(C)C[C@@H](C=O)NC(=O)[C@H](Cc1c[nH]cn1)NC(=O)[C@H](Cc1ccccc1)NC(=O)CCCc1ccccc1 | human renin (Homo sapiens, UniProt P00797) | % Inhibition | 53 |
| CC(C)C[C@@H](C=O)NC(=O)[C@H](Cc1c[nH]cn1)NC(=O)[C@H](Cc1ccccc1)NC(=O)CCSSc1ncccc1[N+](=O)[O-] [Compound 2] ([Mpa](Npys)FHL-aldehyde) | human renin (Homo sapiens, UniProt P00797) | % Inhibition | 70 |
